measurement.notes: Paracellular permeability (Papp) through hBMEC contact co-culture with HBPCT pericytes
Format: in vitro ADME
details: human, pH 7.4, hBMEC contact co-culture with HBPCT, medium with growth factors, mean ± S.E.M.
measured.quantity: Papp at 1 h, 10 μg/mL (×10⁻⁶ cm/s)
Write the value in ×10⁻⁶ cm/s as a bare number.

Prompt: What Papp at 1 h, 10 μg/mL value was documented for this molecule, O=C([O-])c1ccccc1-c1c2ccc(=O)cc-2oc2cc([O-])ccc12.[Na+].[Na+] [Na-F, sodium fluorescein] ?
Response: 8.26

###

measurement.notes: Paracellular permeability (Papp) through hBMEC contact co-culture with SVG-A astrocytes
Type: in vitro ADME
details: human, pH 7.4, hBMEC contact co-culture with SVG-A, medium with growth factors, mean ± S.E.M.
measured.quantity: Papp at 1 h, 10 μg/mL

Prompt: // Papp at 1 h, 10 μg/mL lookup, key: O=C([O-])c1ccccc1-c1c2ccc(=O)cc-2oc2cc([O-])ccc12.[Na+].[Na+] [Na-F, sodium fluorescein]
Response: 7.43 ×10⁻⁶ cm/s

###

measurement.notes: Recovery (mass balance) in permeability assays through hBMEC mono-cultures and contact co-cultures
Assay type: in vitro ADME
details: human, pH 7.4; all hBMEC mono-culture / co-culture experiments with SVG-A or HBPCT
measured.quantity: recovery at 1 h, 10 μg/mL

Prompt: Please give the measured recovery at 1 h, 10 μg/mL for this molecule: O=C([O-])c1ccccc1-c1c2ccc(=O)cc-2oc2cc([O-])ccc12.[Na+].[Na+] [Na-F, sodium fluorescein]
Response: 98 to 102%

###

Assignment: determine reported Papp at 1 h, 10 μg/mL for the given molecules.
measurement.notes: Paracellular permeability (Papp) of marker compounds through TY10 mono-cultures on 24-well inserts
Type: in vitro ADME
details: human, pH 7.4, TY10 monolayers (33°C 2 days, then 37°C 2 days), Greiner Bio-one transparent PET 3.0 μm inserts, mean ± S.E.M.
Provide the reading as a plain figure in ×10⁻⁶ cm/s.

Prompt: Field request: Papp at 1 h, 10 μg/mL | item: O=C([O-])c1ccccc1-c1c2ccc(=O)cc-2oc2cc([O-])ccc12.[Na+].[Na+] [Na-F, sodium fluorescein]
Response: 12.4

Prompt: Which Papp at 1 h, 10 μg/mL is listed for C=CS(=O)(=O)c1cccc(N2C(=O)c3cc(S(=O)(=O)[O-])cc4c(N)c(S(=O)(=O)[O-])cc(c34)C2=O)c1.[Li+].[Li+] [LY, Lucifer Yellow VS dilithium salt] ?
Response: 9.68

###

measurement.notes: Recovery (mass balance) in permeability assays through mono-cultures
Type: in vitro ADME
details: human, pH 7.4; all mono-culture permeability experiments (hCMEC/D3, hBMEC, TY10)
For each entry below, report its recovery at 1 h, 10 μg/mL value.

Prompt: Tell me the measured recovery at 1 h, 10 μg/mL of O=C([O-])c1ccccc1-c1c2ccc(=O)cc-2oc2cc([O-])ccc12.[Na+].[Na+] [Na-F, sodium fluorescein] , please.
Response: 75 to 87%

Prompt: Tell me the measured recovery at 1 h, 10 μg/mL of C=CS(=O)(=O)c1cccc(N2C(=O)c3cc(S(=O)(=O)[O-])cc4c(N)c(S(=O)(=O)[O-])cc(c34)C2=O)c1.[Li+].[Li+] [LY, Lucifer Yellow VS dilithium salt] , please.
Response: 66 to 79%

###

measurement.notes: Paracellular permeability (Papp) of marker compounds through hBMEC mono-cultures on 24-well inserts
Format: in vitro ADME
details: human, pH 7.4, hBMEC mono-culture, growth medium 20% FBS, Greiner Bio-one transparent PET 3.0 μm inserts, 10 μg/mL apical, 1 h, 37°C, mean ± S.E.M.
measured.quantity: Papp at 1 h, 10 μg/mL (×10⁻⁶ cm/s)
API: value field is a number in ×10⁻⁶ cm/s; no unit string.

Prompt: Field request: Papp at 1 h, 10 μg/mL | item: C=CS(=O)(=O)c1cccc(N2C(=O)c3cc(S(=O)(=O)[O-])cc4c(N)c(S(=O)(=O)[O-])cc(c34)C2=O)c1.[Li+].[Li+] [LY, Lucifer Yellow VS dilithium salt]
Response: 5.39

Prompt: For the compound shown here, O=C([O-])c1ccccc1-c1c2ccc(=O)cc-2oc2cc([O-])ccc12.[Na+].[Na+] [Na-F, sodium fluorescein] , give the reported Papp at 1 h, 10 μg/mL.
Response: 5.08

###

Provide the reported Papp at 1 h, 10 μg/mL of each item.
measurement.notes: Paracellular permeability (Papp) of marker compounds through hCMEC/D3 mono-cultures on 24-well inserts
Assay type: in vitro ADME
details: human, pH 7.4, hCMEC/D3 grown with initial medium containing 5% FBS, Greiner Bio-one transparent PET 3.0 μm inserts, mean ± S.E.M.
# unit: ×10⁻⁶ cm/s | format: bare number

Prompt: Need Papp at 1 h, 10 μg/mL of O=C([O-])c1ccccc1-c1c2ccc(=O)cc-2oc2cc([O-])ccc12.[Na+].[Na+] [Na-F, sodium fluorescein] , thanks.
Response: 12.5

Prompt: Which measured Papp at 1 h, 10 μg/mL value corresponds to C=CS(=O)(=O)c1cccc(N2C(=O)c3cc(S(=O)(=O)[O-])cc4c(N)c(S(=O)(=O)[O-])cc(c34)C2=O)c1.[Li+].[Li+] [LY, Lucifer Yellow VS dilithium salt] ?
Response: 10

###

Assignment: determine reported Papp at 1 h, 10 μg/mL for the given molecules.
measurement.notes: Paracellular permeability (Papp) of marker compounds through hCMEC/D3 mono-cultures on 24-well inserts
Assay type: in vitro ADME
details: human, pH 7.4, hCMEC/D3 cultivated with growth medium containing 20% FBS, Greiner Bio-one transparent PET 3.0 μm inserts, mean ± S.E.M.
The answer is to be given in ×10⁻⁶ cm/s; state only the numeric part.

Prompt: Requested read-out: Papp at 1 h, 10 μg/mL. Entry: O=C([O-])c1ccccc1-c1c2ccc(=O)cc-2oc2cc([O-])ccc12.[Na+].[Na+] [Na-F, sodium fluorescein]
Response: 13.4

Prompt: What value of Papp at 1 h, 10 μg/mL has been reported for the following molecule? C=CS(=O)(=O)c1cccc(N2C(=O)c3cc(S(=O)(=O)[O-])cc4c(N)c(S(=O)(=O)[O-])cc(c34)C2=O)c1.[Li+].[Li+] [LY, Lucifer Yellow VS dilithium salt]
Response: 11.7

###

measurement.notes: Paracellular permeability (Papp) through hBMEC contact co-culture with HBPCT pericytes
Format: in vitro ADME
details: human, pH 7.4, hBMEC co-cultured with HBPCT, medium deprived of growth factors, mean ± S.E.M., n = 3
measured.quantity: Papp at 1 h, 10 μg/mL (×10⁻⁶ cm/s)
Quick reminder: number only, in ×10⁻⁶ cm/s, skip the unit.

Prompt: Which Papp at 1 h, 10 μg/mL value is on record for O=C([O-])c1ccccc1-c1c2ccc(=O)cc-2oc2cc([O-])ccc12.[Na+].[Na+] [Na-F, sodium fluorescein] ?
Response: 7.22

###

measurement.notes: Paracellular permeability (Papp) of marker compounds through hBMEC mono-cultures on 24-well inserts
Format: in vitro ADME
details: human, pH 7.4, hBMEC monolayers cultured without growth factors, mean ± S.E.M., n = 3
Experimental: To further assess tight junction (TJ) integrity of endothelial cell layers, paracellular permeabilities of Na-F (MW 376.27) and LY (MW 550.39) were measured. These two fluorescent, non-P-glycoprotein (P-gp) substrate molecules have low BBB penetration and are widely used as barrier integrity markers for in vitro models. […] TEER and CCL values before and after the assays were monitored continuously for integrity control. […]
measured.quantity: Papp at 1 h, 10 μg/mL
Answer with the value and then the unit.

Prompt: If you can, please state the reported Papp at 1 h, 10 μg/mL value of O=C([O-])c1ccccc1-c1c2ccc(=O)cc-2oc2cc([O-])ccc12.[Na+].[Na+] [Na-F, sodium fluorescein] .
Response: 5.11 ×10⁻⁶ cm/s
